Known binding signal of a selection of sequences
- target: HNF4alpha2 (COS-7 nuclear extract) (Homo sapiens, UniProt P41235 1-474)
- Sequence: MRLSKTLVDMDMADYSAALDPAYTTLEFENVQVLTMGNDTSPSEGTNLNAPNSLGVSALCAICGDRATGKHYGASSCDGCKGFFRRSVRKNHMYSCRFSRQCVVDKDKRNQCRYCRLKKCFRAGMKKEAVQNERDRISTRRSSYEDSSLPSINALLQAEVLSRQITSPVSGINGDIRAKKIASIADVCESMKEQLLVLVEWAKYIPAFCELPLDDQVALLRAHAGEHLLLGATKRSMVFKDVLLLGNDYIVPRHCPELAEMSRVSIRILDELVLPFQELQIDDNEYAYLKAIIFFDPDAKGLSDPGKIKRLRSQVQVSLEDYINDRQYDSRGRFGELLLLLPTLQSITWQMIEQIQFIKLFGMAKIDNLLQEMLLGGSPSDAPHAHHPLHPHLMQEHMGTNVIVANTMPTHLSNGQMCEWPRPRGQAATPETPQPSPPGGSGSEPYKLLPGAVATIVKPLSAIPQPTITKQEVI
- assay: protein-binding microarray; COS-7 nuclear extract on double-stranded Agilent 4x180k PBM; binding buffer, salt, pH and temperature not given in the material; high values mean tight binding
- condition_info: chain copies: 2; label: 3' end of strand 1 on the slide; dsDNA, one strand shown
In all, about 18,000 sequences were measured (“log2 normalized intensity”: median about 0.39, highest 2% from about 6.6 on). Shown is part of a subset that was picked to be rich in the highest values.
experimental_endpoint: binding signal

[
  {
    "query_sequence": "CAATCCCATGACCTTTGTACTAATGATTTGGCCTAGGGAGATTAGAGTATCGGTCGA",
    "test_result": "5.84 log2 normalized intensity"
  },
  {
    "query_sequence": "TGCGTGTTATCTATGGAACATGGACTTTGAGCCTAGGGAGATTAGAGTATCGGTCGA",
    "test_result": "8.74 log2 normalized intensity"
  },
  {
    "query_sequence": "TTAAGATTTGACCCTTGGCCAGGTGCAGTGGCCTAGGGAGATTAGAGTATCGGTCGA",
    "test_result": "4.65 log2 normalized intensity"
  },
  {
    "query_sequence": "TTGCACCAGTTTCTCAACAGACCCCTGAATGCCTAGGGAGATTAGAGTATCGGTCGA",
    "test_result": "2.27 log2 normalized intensity"
  },
  {
    "query_sequence": "CTTTGAGAAAGCAAAGTCCCTGGGGACAGGGCCTAGGGAGATTAGAGTATCGGTCGA",
    "test_result": "-0.0595 log2 normalized intensity"
  },
  {
    "query_sequence": "GACCTTTGGACTTGATAGAGTTTAAGTCTTGCCTAGGGAGATTAGAGTATCGGTCGA",
    "test_result": "6.99 log2 normalized intensity"
  },
  {
    "query_sequence": "TACTGAAAATGACCTTTGTTCCCTGCACTTGCCTAGGGAGATTAGAGTATCGGTCGA",
    "test_result": "7.15 log2 normalized intensity"
  },
  {
    "query_sequence": "TCACCCTCTCCACCCCCATGCAAGTTCCCAGCCTAGGGAGATTAGAGTATCGGTCGA",
    "test_result": "5.26 log2 normalized intensity"
  },
  {
    "query_sequence": "AACTAGCAACTTGGACCTTGATAGGAGTTAGCCTAGGGAGATTAGAGTATCGGTCGA",
    "test_result": "2.88 log2 normalized intensity"
  },
  {
    "query_sequence": "TGTCTTCTGACCTTTGGCAATATCTCCCAGGCCTAGGGAGATTAGAGTATCGGTCGA",
    "test_result": "3.48 log2 normalized intensity"
  },
  {
    "query_sequence": "ATATCCTGACTGCTGACCTTTAAGCCTATAGCCTAGGGAGATTAGAGTATCGGTCGA",
    "test_result": "3.85 log2 normalized intensity"
  },
  {
    "query_sequence": "ATCTCTAAGCTACTGAAAATGACCTTTGTTGCCTAGGGAGATTAGAGTATCGGTCGA",
    "test_result": "6.11 log2 normalized intensity"
  },
  {
    "query_sequence": "TGTTTCCAATAGGTTTGATTTCAGCATGTTGCCTAGGGAGATTAGAGTATCGGTCGA",
    "test_result": "1.59 log2 normalized intensity"
  },
  {
    "query_sequence": "TACATTGAACTTTGAACACCTCTTCTTTCTGCCTAGGGAGATTAGAGTATCGGTCGA",
    "test_result": "4.75 log2 normalized intensity"
  },
  {
    "query_sequence": "GAACATGGACTTTGAACCTCTCTTCTTTTTGCCTAGGGAGATTAGAGTATCGGTCGA",
    "test_result": "7.25 log2 normalized intensity"
  },
  {
    "query_sequence": "TATCTTGTGACCTTTGACTCATTATCCCCCGCCTAGGGAGATTAGAGTATCGGTCGA",
    "test_result": "6.24 log2 normalized intensity"
  },
  {
    "query_sequence": "TCCAGTGGACATTGGCCCTTTGACCTTTAAGCCTAGGGAGATTAGAGTATCGGTCGA",
    "test_result": "7.47 log2 normalized intensity"
  },
  {
    "query_sequence": "CTGAACTTTAAACTGGTGTGTCTTGCCTTTGCCTAGGGAGATTAGAGTATCGGTCGA",
    "test_result": "2.06 log2 normalized intensity"
  },
  {
    "query_sequence": "TCTTCCTAGGCAATCCCATGACCTTTGTACGCCTAGGGAGATTAGAGTATCGGTCGA",
    "test_result": "8.78 log2 normalized intensity"
  },
  {
    "query_sequence": "CTTATCTACTTTAAGATTTGACCCTTGGCCGCCTAGGGAGATTAGAGTATCGGTCGA",
    "test_result": "7.08 log2 normalized intensity"
  },
  {
    "query_sequence": "AGAAGCTTGGTATGTCTGATGAATAGAAAGGCCTAGGGAGATTAGAGTATCGGTCGA",
    "test_result": "0.62 log2 normalized intensity"
  },
  {
    "query_sequence": "GGAGAGGATGGGGACAAAGGTCAAGAAAGCGCCTAGGGAGATTAGAGTATCGGTCGA",
    "test_result": "5.86 log2 normalized intensity"
  },
  {
    "query_sequence": "GACAAAGGTCATTCATGTGCAGGTTGGAATGCCTAGGGAGATTAGAGTATCGGTCGA",
    "test_result": "2.77 log2 normalized intensity"
  },
  {
    "query_sequence": "ATTCTCTTATCTACTTTAAGATTTGACCCTGCCTAGGGAGATTAGAGTATCGGTCGA",
    "test_result": "5 log2 normalized intensity"
  },
  {
    "query_sequence": "CTAATGGAGAGGATGGGGACAAAGGTCAAGGCCTAGGGAGATTAGAGTATCGGTCGA",
    "test_result": "7.24 log2 normalized intensity"
  },
  {
    "query_sequence": "GTTATCTAATGGAGAGGATGGGGACAAAGGGCCTAGGGAGATTAGAGTATCGGTCGA",
    "test_result": "1.47 log2 normalized intensity"
  },
  {
    "query_sequence": "CTATCACTGTCTAGCTGTGTAACCCTGGACGCCTAGGGAGATTAGAGTATCGGTCGA",
    "test_result": "1.48 log2 normalized intensity"
  },
  {
    "query_sequence": "CTCCTGACCTTTGGACTTGATAGAGTTTAAGCCTAGGGAGATTAGAGTATCGGTCGA",
    "test_result": "7.57 log2 normalized intensity"
  },
  {
    "query_sequence": "CGGGTGAAGGTTAAATAGCTCATTAAGCTTGCCTAGGGAGATTAGAGTATCGGTCGA",
    "test_result": "-0.974 log2 normalized intensity"
  },
  {
    "query_sequence": "AATTCATCTCTAAGCTACTGAAAATGACCTGCCTAGGGAGATTAGAGTATCGGTCGA",
    "test_result": "3.39 log2 normalized intensity"
  },
  {
    "query_sequence": "CCTTGCACTATTGACCCAGTGAAACAACACGCCTAGGGAGATTAGAGTATCGGTCGA",
    "test_result": "1.65 log2 normalized intensity"
  },
  {
    "query_sequence": "AACATGGACTTTGTTGTTTGCCTCTGAAAAGCCTAGGGAGATTAGAGTATCGGTCGA",
    "test_result": "2.31 log2 normalized intensity"
  },
  {
    "query_sequence": "AATATTCTGGCTTCTCGTGAGTATTTTTTCGCCTAGGGAGATTAGAGTATCGGTCGA",
    "test_result": "0.954 log2 normalized intensity"
  },
  {
    "query_sequence": "AGAATATTAGATGATAAGGGTGAAAAGATAGCCTAGGGAGATTAGAGTATCGGTCGA",
    "test_result": "-0.989 log2 normalized intensity"
  },
  {
    "query_sequence": "GCAGATGGGCAGCACTGTGATTTGTTCAGGGCCTAGGGAGATTAGAGTATCGGTCGA",
    "test_result": "0.439 log2 normalized intensity"
  },
  {
    "query_sequence": "ACCTTTAGCACCGTAAGAGAGTATTTCCCAGCCTAGGGAGATTAGAGTATCGGTCGA",
    "test_result": "1.13 log2 normalized intensity"
  },
  {
    "query_sequence": "TTTAAAAACTTATCTTGTGACCTTTGACTCGCCTAGGGAGATTAGAGTATCGGTCGA",
    "test_result": "8.33 log2 normalized intensity"
  }
]
